# TESTED_TARGET: IL-23 (human, p19/p40 heterodimer) (Homo sapiens, UniProt Q9NPF7;P29460 SEQ:20-189,SEQ:23-328)
# Sequence (Q9NPF7 20-189, chain 1 of 2): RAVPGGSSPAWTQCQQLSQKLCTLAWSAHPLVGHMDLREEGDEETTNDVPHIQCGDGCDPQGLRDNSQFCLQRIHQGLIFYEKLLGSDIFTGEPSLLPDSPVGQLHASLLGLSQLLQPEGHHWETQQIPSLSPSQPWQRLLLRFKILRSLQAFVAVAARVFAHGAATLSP
# Sequence (P29460 23-328, chain 2 of 2): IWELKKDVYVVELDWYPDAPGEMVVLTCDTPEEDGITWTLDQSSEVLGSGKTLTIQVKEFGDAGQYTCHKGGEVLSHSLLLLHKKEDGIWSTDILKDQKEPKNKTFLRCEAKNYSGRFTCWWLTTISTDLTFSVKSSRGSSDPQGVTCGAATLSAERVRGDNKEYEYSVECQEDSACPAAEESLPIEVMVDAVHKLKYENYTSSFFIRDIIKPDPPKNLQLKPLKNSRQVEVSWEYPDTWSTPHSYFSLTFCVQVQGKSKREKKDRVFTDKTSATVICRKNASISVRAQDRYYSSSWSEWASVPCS
# PROTOCOL_NOTES: filter; SHMCK, tRNA
# TEST_CONDITIONS: tags: R&D Systems, carrier free
REPORTED_PROPERTY: Kd (nM)

AMX91-G1 (ssRNA, 2'-F C,U) RNA: GGGAAAAGCGAAUCAUACACAAGAUAUGUGCCUGGGAUGGACGACAUCCCCUGUCUAAGGAUAUGCUCCGCCAGAGACCAACCGAGAA :: 82.3
AMX86-H7 (ssRNA, 2'-F C,U) RNA: GGGAAAAGCGAAUCAUACACAAGAGAUGACUACACGCCAGUGUGCGCUUUUUGCGGAGUUAGCGGCUCCGCCAGAGACCAACCGAGAA :: 89.8
AMX91-G11 (ssRNA, 2'-F C,U) RNA: GGGAAAAGCGAAUCAUACACAAGACUUAACAGUGCGGGGCGCAGUGUAUAGAUCCGCAAUGUGUGCUCCGCCAGAGACCAACCGAGAA :: 104
AMX86-B10 (ssRNA, 2'-F C,U) RNA: GGGAAAAGCGAAUCAUACACAAGAGAACGAGUAUAUUUGCGCUGGCGGAGAAGUCUCUCGAAGGGAGCUCCGCCAGAGACCAACCGAGAA :: 77.8
AMX86-B5 (ssRNA, 2'-F C,U) RNA: GGGAAAAGCGAAUCAUACACAAGAUUAGUGCGUGUGUUGAAAGGGCUCAUAAUGUCAGUAUCGAGCUCCGCCAGAGACCAACCGAGAA :: 196

Data origin: patent US20060193821
